System: T-47D
procedure.text: viability inhibition at highest dose (% inhibition); higher = more growth inhibition
experimental.conditions: 4-OH-tamoxifen in medium 0 µM; 72 h
So basically, if viability inhibition at highest dose comes in under 30 it's 1, and if it's 30 or more it's 0.

Would you kindly verify if viability inhibition at highest dose of CC(C)n1nc(-c2ccc3oc(N)nc3c2)c2c(N)ncnc21 [INK128] (drug 1000 nM) is strictly less than 30?
0

I'd appreciate it if you could check whether C[C@]1(c2nc3c(C(N)=O)cccc3[nH]2)CCCN1 [Veliparib (ABT-888)] (drug 10000 nM) has viability inhibition at highest dose smaller than 30.
1

I'd appreciate it if you could check whether COc1ccc(-c2cc3c(C)nc(N)nc3n([C@H]3CC[C@H](OCCO)CC3)c2=O)cn1 (drug 10000 nM) has viability inhibition at highest dose smaller than 30.
0

For this compound, is viability inhibition at highest dose lower than 30? COc1cc2nccc(Oc3ccc(NC(=O)C4(C(=O)Nc5ccc(F)cc5)CC4)cc3)c2cc1OC [Cabozantinib (XL184)] (drug 1000 nM)
1

In plain terms, does c1ccc2c(CCNc3ccc(Nc4ccncc4)cc3)c[nH]c2c1 (drug 10000 nM) come in under 30 for viability inhibition at highest dose?
1

Is viability inhibition at highest dose of CO[C@@]12[C@H](COC(N)=O)C3=C(C(=O)C(C)=C(N)C3=O)N1C[C@@H]1N[C@@H]12 [Mitomycin C] (drug 10000 nM) strictly below 30?
0

Item CNC(=O)c1ccccc1Sc1ccc2c(/C=C/c3ccccn3)n[nH]c2c1 [Axitinib] (drug 10000 nM) : viability inhibition at highest dose beneath 30, strictly?
0

Lab log: compare recorded viability inhibition at highest dose with 30; is it strictly lower for CC1(C)CNc2cc(NC(=O)c3cccnc3NCc3ccncc3)ccc21 [Motesanib (AMG-706)] (drug 10000 nM) ?
1

---

System: ZR-75-1
procedure.text: viability inhibition at highest dose (% inhibition); higher = more growth inhibition
experimental.conditions: 4-OH-tamoxifen in medium 0 µM; 72 h
readout.name: viability inhibition at highest dose
Give a plain numeric answer without units written out.

Return reported viability inhibition at highest dose; argument: Cc1c(N)nc([C@H](CC(N)=O)NC[C@H](N)C(N)=O)nc1C(=O)N[C@H](C(=O)N[C@H](C)[C@@H](O)[C@H](C)C(=O)N[C@H](C(=O)NCCc1nc(-c2nc(C(=O)NCCC[S+](C)C)cs2)cs1)[C@@H](C)O)[C@@H](OC1OC(CO)C(O)C(O)C1OC1OC(CO)C(O)C(OC(N)=O)C1O)c1cnc[nH]1 (stereo not given in full) [Bleomycin] (drug 10000 nM)
22.4

Can you share its viability inhibition at highest dose? I mean this compound: CN(C)CCOc1ccc(/C(=C(/CCCl)c2ccccc2)c2ccccc2)cc1 [Toremifene (citrate)] (drug 10000 nM)
3.59

Form field: reported viability inhibition at highest dose of Nc1ccn([C@@H]2O[C@H](CO)[C@@H](O)[C@@H]2O)c(=O)n1 [Cytarabine] (drug 10000 nM)
39.3

# viability inhibition at highest dose lookup, item C=CC[C@@H]1/C=C(\C)C[C@H](C)C[C@H](OC)[C@H]2O[C@@](O)(C(=O)C(=O)N3CCCC[C@H]3C(=O)O[C@H](/C(C)=C/[C@@H]3CC[C@@H](O)[C@H](OC)C3)[C@H](C)[C@@H](O)CC1=O)[C@H](C)C[C@@H]2OC [Tacrolimus (FK 506)] (drug 10000 nM)
-3.64

Bench note: what viability inhibition at highest dose did O=C(CCCCCCC(=O)Nc1ccccc1)NO [Vorinostat] (drug 10000 nM) show?
37.5

---

Tested on: ZR-75-1 Tam1
procedure.text: drug sensitivity score (DSS) (DSS (dimensionless)); higher = more sensitive; extreme values may be limits of the assay
experimental.conditions: 4-OH-tamoxifen in medium 1 µM; 72 h
Where a name gives a salt, the structure may show the parent alone.
readout.name: drug sensitivity score
# print the numeric value only

Param item = Cn1cnc2c(F)c(Nc3ccc(Br)cc3F)c(C(=O)NOCCO)cc21 [MEK-162 (ARRY-162)] ; retrieve measured drug sensitivity score.
0

Quick check: drug sensitivity score of CCCCCCCCc1ccc(CCC(N)(CO)CO)cc1 [Fingolimod] ?
2.18

Endpoint output: drug sensitivity score of Cn1c(Nc2ccc(C(F)(F)F)cc2)nc2cc(Oc3ccnc(-c4ncc(C(F)(F)F)[nH]4)c3)ccc21 [RAF265] . Value?
0

Value lookup for drug sensitivity score; key = O=C(/C=C/c1cccnc1)NCCCCC1CCN(C(=O)c2ccccc2)CC1 [Daporinad (FK-866 HCl)]
0

---

Exercise: state measured relative IC50 for each of the compounds provided.
Tested on: BT-474 Tam1
procedure.text: relative IC50 (midpoint of fitted logistic curve, plateau may be below 50% inhibition; CellTiter-Glo viability); higher = less potent
experimental.conditions: 4-OH-tamoxifen in medium 1 µM; 72 h

Tell me reported relative IC50 for `C[C@]12C=CC(=O)C=C1CC[C@@H]1[C@@H]2C(=O)C[C@@]2(C)[C@H]1CC[C@]2(O)C(=O)CO` , tested with BT-474 Tam1.
> 10 µM

Can you look up relative IC50 on BT-474 Tam1 for Cn1cc(C2=Nc3cc(NC(=O)C(N)C4CCCCC4)cc4c3C2=CNNC4=O)cn1 (stereo unspecified) ?
> 10 µM

Any idea what relative IC50 came out for `O=c1[nH]c(=O)n([C@H]2C[C@H](O)[C@@H](CO)O2)cc1F` on BT-474 Tam1?
> 10 µM

Request body: readout relative IC50, system BT-474 Tam1, query C/C(=C\c1csc(C)n1)[C@@H]1C[C@@H]2O[C@]2(C)CCC[C@H](C)[C@H](O)[C@@H](C)C(=O)C(C)(C)[C@@H](O)CC(=O)N1 [Ixabepilone] . Return the value.
> 1 µM

API: value(readout= relative IC50, system= BT-474 Tam1, query= `NC(=O)Nc1cc(-c2cccc(F)c2)sc1C(=O)N[C@H]1CCCNC1` )
> 1 µM

Entry `NCC(=O)CCC(=O)O` , system BT-474 Tam1: what relative IC50 was measured?
> 10 µM

Item `COc1ccc(-c2ccc3c(N4CCOC[C@@H]4C)nc(N4CCOC[C@@H]4C)nc3n2)cc1CO` with BT-474 Tam1 - relative IC50?
0.378 µM

Field: relative IC50 (BT-474 Tam1). Entry: `CCOc1cc2ncc(C#N)c(Nc3ccc(OCc4ccccn4)c(Cl)c3)c2cc1NC(=O)/C=C/CN(C)C`
0.00418 µM

# returns recorded relative IC50 (system: BT-474 Tam1) for `C[C@H]1C[C@@H]2[C@H]([C@@H](O)C[C@@]3(C)[C@H]2CC[C@]3(O)C(=O)CO)[C@@]2(C)C=CC(=O)C=C12`
> 10 µM

Recorded relative IC50 for `Cc1cnc(NC(=O)Nc2cc(Br)c(C)cc2OC[C@@H]2CNCCO2)cn1` with BT-474 Tam1, please?
> 1 µM

Find relative IC50 (BT-474 Tam1) for the entry `CCc1cncnc1N1CCN(Cc2nc3ccc(C(F)(F)F)cc3[nH]2)CC1`
3.23 µM

Short answer please: relative IC50, BT-474 Tam1, entry `Cc1cc(Nc2nc(N[C@@H](C)c3ncc(F)cn3)ncc2Cl)[nH]n1`
> 1 µM

Give recorded relative IC50 with BT-474 Tam1 for the following compound: `COc1cc2c(N3CCN(C(=O)Nc4ccc(OC(C)C)cc4)CC3)ncnc2cc1OCCCN1CCCCC1`
> 1 µM

Under BT-474 Tam1: relative IC50 value of `CNC(=O)c1ccccc1Sc1ccc2c(/C=C/c3ccccn3)n[nH]c2c1` ?
3.25 µM

Provide the documented relative IC50 with BT-474 Tam1 as the system for `CCc1c(C(=O)C(N)=O)c2c(OCC(=O)O)cccc2n1Cc1ccccc1`
> 10 µM

BT-474 Tam1 / relative IC50 / `CO[C@H]1/C=C\C=C(/C)C(=O)NC2=CC(=O)C(NCCN(C)C)=C(C[C@@H](C)C[C@H](OC)[C@H](O)[C@@H](C)/C=C(\C)[C@@H]1OC(N)=O)C2=O` : value?
0.0153 µM

---

Tested on: ZR-75-1 Tam1
procedure.text: relative IC50 (midpoint of fitted logistic curve, plateau may be below 50% inhibition; CellTiter-Glo viability); higher = less potent
experimental.conditions: 4-OH-tamoxifen in medium 1 µM; 72 h
readout.name: relative IC50

Given `NC(=O)Nc1cc(-c2cccc(F)c2)sc1C(=O)N[C@H]1CCCNC1` , state its recorded relative IC50.
> 1000 nM

Consider the molecule shown here: `NCCCNCCSP(=O)(O)O` What is its recorded relative IC50?
> 10000 nM

Please look up its relative IC50: `C[C@@H]1C=C2C(=O)O[C@@H]3CC[C@H](C1)[C@]23O`
> 50000 nM

Can you look up the measured relative IC50 of `Nc1nc2[nH]cnc2c(=S)[nH]1` for me?
1420 nM

Query (molecule): `N#CC[C@H](C1CCCC1)n1cc(-c2ncnc3[nH]ccc23)cn1` ; field requested: relative IC50
> 10000 nM

Bench note: what relative IC50 did `COC(=O)C[C@](O)(CCCC(C)(C)O)C(=O)O[C@@H]1C(OC)=C[C@]23CCCN2CCc2cc4c(cc2[C@H]13)OCO4` show?
84.4 nM

Entry Cn1nnc2c(C(N)=O)ncn2c1=O [Temozolomide] has what relative IC50?
> 10000 nM

Name the recorded relative IC50 for `CN1CCN(c2ccc3nc(-c4c(N)c5c(F)cccc5[nH]c4=O)[nH]c3c2)CC1` .
> 10000 nM

Consider the molecule `Cc1cnc(NC(=O)Nc2cc(Br)c(C)cc2OC[C@@H]2CNCCO2)cn1` and give its measured relative IC50.
> 1000 nM

Recorded relative IC50 of `S=c1[nH]cnc2nc[nH]c12` , please.
1270 nM

So what's the measured relative IC50 for this one? `Cc1ccc(Nc2nccc(N(C)c3ccc4c(C)n(C)nc4c3)n2)cc1S(N)(=O)=O`
> 10000 nM

May I ask what relative IC50 has been recorded for `C[C@]12O[C@H](C[C@]1(O)CO)n1c3ccccc3c3c4c(c5c6ccccc6n2c5c31)CNC4=O` ?
> 1000 nM

Item under review: `C[C@@H](Oc1cc(-c2cnn(C3CCNCC3)c2)cnc1N)c1c(Cl)ccc(F)c1Cl` . Reported relative IC50?
> 1000 nM

Query (molecule): `Cc1ccc(C(=O)N(CCCN)[C@@H](c2oc3cc(Cl)ccc3c(=O)c2Cc2ccccc2)C(C)C)cc1` ; field requested: relative IC50
> 100 nM

Recorded relative IC50 of COCC1(CO)C(=O)C2CCN1CC2 (stereo unspecified) , please.
> 10000 nM

Find the recorded relative IC50 belonging to Cc1cc(C(C)Nc2ccccc2)c2nc(N3CCOCC3)cc(=O)n2c1 (stereo unspecified) and report it.
193 nM

Look up relative IC50: `CN[C@@H]1C[C@H]2O[C@@](C)([C@@H]1OC)n1c3ccccc3c3c4c(c5c6ccccc6n2c5c31)C(=O)N[C@H]4O`
615 nM

Param item = `CC[C@@H]1C(=O)OC[C@@H]1Cc1cncn1C` ; retrieve measured relative IC50.
> 40000 nM

Give the measured relative IC50 of O=P1(N(CCCl)CCCl)NCCCO1 (stereo unspecified) [Clafen (Cyclophosphamide, Endoxan)] .
> 40000 nM

What value of relative IC50 has been recorded for this entry: `O=NN(CCCl)C(=O)NC1CCCCC1`
> 10000 nM

What does the record list as relative IC50 for `CC(=O)Nc1cccc(-n2c(=O)n(C3CC3)c(=O)c3c(Nc4ccc(I)cc4F)n(C)c(=O)c(C)c32)c1` ?
> 250 nM
